target or system: COX-1 (Homo sapiens, UniProt P23219)
Sequence (P23219 24-599): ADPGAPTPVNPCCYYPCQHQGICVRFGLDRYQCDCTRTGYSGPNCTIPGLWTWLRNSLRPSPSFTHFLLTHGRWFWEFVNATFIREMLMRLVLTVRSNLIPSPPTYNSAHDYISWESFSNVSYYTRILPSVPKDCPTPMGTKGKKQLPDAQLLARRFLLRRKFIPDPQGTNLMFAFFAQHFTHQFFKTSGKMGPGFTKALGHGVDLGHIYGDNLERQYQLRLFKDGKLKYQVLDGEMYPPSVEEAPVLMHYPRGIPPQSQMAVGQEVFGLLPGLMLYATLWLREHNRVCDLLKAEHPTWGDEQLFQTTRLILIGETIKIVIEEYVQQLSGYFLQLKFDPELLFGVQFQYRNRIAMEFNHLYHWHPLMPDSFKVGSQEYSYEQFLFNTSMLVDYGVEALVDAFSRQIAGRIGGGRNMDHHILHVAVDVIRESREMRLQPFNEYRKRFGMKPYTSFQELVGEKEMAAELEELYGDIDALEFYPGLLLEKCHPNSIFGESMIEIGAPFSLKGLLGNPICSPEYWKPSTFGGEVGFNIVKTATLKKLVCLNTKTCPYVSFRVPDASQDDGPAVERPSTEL
test protocol: biochemical
Format: biochemical
test conditions: Table III; U937
recorded metric: IC50 (nM)

Example cases with answers are listed next.
1. CC1(C)OC(=O)C(Oc2ccc(F)cc2)=C1c1ccc(S(C)(=O)=O)cc1 [Example 8]
300
2. CC1(C)OC(=O)C(Oc2ccc(Cl)cc2)=C1c1ccc(S(C)(=O)=O)cc1 [Example 6]
400

a = CC1(C)OC(=O)C(Oc2ccc(F)c(F)c2)=C1c1ccc(S(C)(=O)=O)cc1 [Example 1]
b = CS(=O)(=O)c1ccc(C2=C(Oc3ccccc3)C(=O)OC23CCCC3)cc1 [Example 20]
Recorded IC50 values differ for a and b ; which one is higher? Write the label of whichever entry you select.
a
